test system: HIV; assay: MT4 assay: antiviral HIV activity in MT-4 cells; format: cell-based; conditions: Human immunodeficiency virus 1, MT4, 96 h, read-out: HIV MT4 Assay IC50 (μM), HTLV-1 transformed cell line MT-4; read-out 96 hours later with cell titer glo; 10 point dose response
observable: log10 of IC50 (log10 of the value in µM)
Values below are the log10 of the recorded IC50, with µM as the unit.

Entry under review: Cc1nc2c(ccn2Cc2ccc(F)c(F)c2)c(-c2cc(F)c3c(c2C)CCCO3)c1[C@H](OC(C)(C)C)C(=O)O (atropisomer, axis not shown; (M)) [Example 96] . Reported log10 of IC50? -2.22

Entry under review: Cc1nc2c(ccn2CC2CCN(C(=O)OC(C)(C)C)CC2)c(-c2ccc3c(c2)CCCO3)c1C(OC(C)(C)C)C(=O)O (centres unmarked) [Example 66] . Reported log10 of IC50? 0.87

Entry under review: COc1ccc(-c2c([C@H](OC(C)(C)C)C(=O)O)c(C)nc3c2ccn3Cc2ccc(F)c(F)c2)c(C)c1 (atropisomer, axis not shown; (M)) [Example 111] . Reported log10 of IC50? -1.43

Entry under review: Cc1ccc(-c2c(C(OC(C)(C)C)C(=O)O)c(C)nc3c2ccn3Cc2ccccc2)cc1 (centres unmarked) [Example 19] . Reported log10 of IC50? -0.77

Entry under review: Cc1nc2c(ccn2Cc2ccc(F)c(F)c2)c(-c2ccc3c4c(ccnc24)CCO3)c1[C@H](OC(C)(C)C)C(=O)O (atropisomer, axis not shown; (M)) [Example 124] . Reported log10 of IC50? -1.46
